Exercise: for every item that follows, state its recorded protein stability index.
- Tested on: Saccharomyces cerevisiae;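 further: PSI is a weighted mean of sequencing reads over stability bins, variants kept only with over 10 reads, mCherry proximal and sfGFP distal, peptide attached via GGGS linker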
- Assay summary: protein stability index of tFT-peptide fusion (C-terminal peptide) (PSI (0-1 scale)); higher = more stable (slower turnover)
- Condition: genetic background: wild type; temperature: 30 C

Worked cases, answers included:
LFSDAWVLTDWW	0.753
VGGAVVWVGLVR	0.55
HPSREPLLLCYH	0.618

State recorded protein stability index for all listed sequences.
1. CMASCTRSYYRL
2. DPCDVVQHPSAQ
3. LSGSTQLLYFFQ
4. SELTCSSINSAT
5. GALYGARCNFEL

Solution:
1. 0.661
2. 0.657
3. 0.665
4. 0.673
5. 0.72
